Data origin: the supplement of paper PMC9170038

// reported apparent KD of MS2 coat protein per item
tested on: MS2 coat protein; test: apparent KD of MS2 coat protein; designed switch direction (-1 OFF switch, 1 ON switch): -1; higher = weaker reporter binding; details: input ligand: none
Give your result in nM as a bare value.

Would you please look over these solved cases?
CAGUACUGAGGAUAUACAUGAGGAUCACCCAUGUUCCAAGGCUAGGAUACUAGCAAAGGUAGAAGGCAGUACUG [Mat - Exclusion 3 - Eli Mod - D26] (Eterna round: R97, puzzle: Exclusion 3) :: 17.6
AACAGUACAGGAUAUACAUGAGGAUCACCCAUGUGAGACUUAAGUGGCGUACCACAAAGUAGAAGGGUACUGGA [JL Maslow Revisted mod 8] (Eterna round: R96, puzzle: Exclusion 3) :: 90.3

Kindly note: MS2 coat protein, UUCACGUCAGGAUAUCCAUAUUUCUGAUAUAACGGUACUUUGGAGAAGGGACAUGAGGAUCACCCAUGUCCUCU [LRO-Excl4-19-Nando 22 Mod] (Eterna round: R97, puzzle: Exclusion 4) , apparent KD of MS2 coat protein value reported: 16.9

====

test system: MS2 coat protein; test: apparent KD of MS2 coat protein; designed switch direction (-1 OFF switch, 1 ON switch): -1; higher = weaker reporter binding; settings: input ligand: FMN 200 uM
Please map values of apparent KD of MS2 coat protein to classes as shown: lower band (below 50 nM), central band (50 nM to below 90 nM), upper band (90 nM or more)

A selection of reference data follows.
AGCCAAGCAGGAUAUGCCCGGGAUAACAUGAGGAUCACCCAUGUGACCGAUUGAUGUCCUGCAGAAGGGCUUGGGA [Erxesoan] (Eterna round: R96, puzzle: Exclusion 5) :: central band
AAGAAUCGCAAUACGAAUAAGCAAUACGAACAAUAGCAAACAUGAGGAUCACCCAUGUCAAGGGUGACAACGCUCUA [JR_Sensorv2_tov2_Sub107] (Eterna round: R96, puzzle: Sensor v2, turn-off variant 2) :: upper band
CUGGAUAGAGGAUAUUGUACUGCUGACAUGAGGAUCACCCAUGUAUGUUAACUCGGCCGUCGAGAAGGCUAACAAA [BotMod 14 - Jieux - Exclusion 5] (Eterna round: R97, puzzle: Exclusion 5) :: lower band
ACAUGUCAUUGAGGAUAUUGCACACAUGAGGAUCACCCAUGUAUACGGAUGCUCUUCCGUGAGUUCGAGAAGGCGAUGUACAUU [Ex NG2 #90] (Eterna round: R96, puzzle: Exclusion NG 2) :: central band
CUUAAAAGGAAGGAUAUGCUAGACGAAAGUCUAGCAGAAGGUCCUACAUGAGGAUCACCCAUGUGUCCUGUAAG [Mat - Exclusion 6 - Eli Mod - D41] (Eterna round: R97, puzzle: Exclusion 6) :: upper band
CUUUUGUGAGGAUAUCAGUAGUAAAAAAAUAAAAUUACUACUGAGAAGGCACAUGAGGAUCACCCAUGUUCCUC [EX4 344: Super Stable 44] (Eterna round: R96, puzzle: Exclusion 4) :: upper band
GCAAGACAUGAGGAUCACCCAUGUGAGGAUAUUGCUCGACACCUGCGCGAAGAGUCGAUAAGAAGGUACAGGGU [Eternabot (L2) Solution 90] (Eterna round: R97, puzzle: Exclusion 1) :: central band
UAUUUAGCAAGCAGAUCCUACAUGAGGAUCACCCAUGUGCUCUGAAAUAACGCAGAAUUACUGCGAGCUCGUCUUAU [Winner reversed engineered 27] (Eterna round: R97, puzzle: Sensor, turn-off variant 1) :: central band

Here is another sequence to look at.
Input AAGUCGGCAGGAUAUACAUGAGGAUCACCCAUGUAAAUUUUUCGUUUAACUUGAAUGUGUAGAAGGGCCAUGAA [Ex3 #67] (Eterna round: R97, puzzle: Exclusion 3) ; output its category
lower band

====

tested on: K4 kissing-loop RNA reporter; experiment: apparent KD of K4 kissing-loop reporter; higher = weaker reporter binding; details: Eterna round: R107; input ligand: FMN 200 uM
MEASURED QUANTITY: apparent KD of K4 kissing-loop reporter
Just the number plus its unit, please.

UCUGGAGCGUAUGAUACCAGCAGAGAGAGACAGGAAGUAUAGUGAUGUUAUAUGAGAGAAUGCCCUUGGCAGCGUGUGCAGUGGC [#26 K4 Theophylline B Same State] :: 0.0559 µM

The sequence listed as GCACUGAAGUGAUGUUUUUGUGCACGUUGAAAGGAUAUCUGCUUGUAGAGAAGGUUCUGUUUGUGCGGAGCGGGCGUUACCGGCA [theeternabot_exclusion_KL_FMN_A_32] has a reported apparent KD of K4 kissing-loop reporter of 0.307 µM

The sequence listed as AAUUUAGUGACGGCCGCCACUAGGGUGAUUUUUUUGUUUGAGUGAUGUUUUGAUGUUUGAUUUUGUAGGACCGGGUUAGGUGAUG [cccmullin] has a reported apparent KD of K4 kissing-loop reporter of 0.327 µM

The sequence listed as CUUAAGAUAUGAGUGAUGUUUAUGUCCGAAGGAGCGUGCGAAAGUACAGGUAGGUCGCGGAUGUGAGUGAUGUUUAUGUAAGCGA [KL-XArg-A14 #analogue] has a reported apparent KD of K4 kissing-loop reporter of 0.121 µM

The sequence listed as GAACGGAGUGAUGUUCCGUUGACGAUCCUACGAGGACCGGUACGGCCGCCACUCGUAUUGCAGUGAUGUUGCAACCAGCCGUACU [Exclusion Tryptophan A GF 10] has a reported apparent KD of K4 kissing-loop reporter of 0.104 µM

The sequence listed as AGAGAUAUAUGAGGAUAUGGGUUAGUUAAUGAGUUAGUUUUAGUGUUGUUUGGUUAGUGAUGUUAUUUAGAAGGCGUGAGUGAUG [cqqbmullin] has a reported apparent KD of K4 kissing-loop reporter of 0.0984 µM

====

tested on: K4 kissing-loop RNA reporter; test: apparent KD of K4 kissing-loop reporter; higher = weaker reporter binding; conditions: Eterna round: R107; input ligand: FMN 200 uM;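 also: bound reporter read as fluorescence of individual clusters on recovered sequencing chips by microscopy, with normalized cluster intensities fitted with a binding model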
Please map values of apparent KD of K4 kissing-loop reporter to classes as shown: I (below 100 nM), II (100 nM to below 200 nM), III (200 nM or more)

UUGGCCCGGCCGGAAGGCCGGGCCUGCGAGCGAGGACCGGUACGGCCGCCACUCGGCGCAGUGAUGUUGCGUGGCCGCAAGGCCG [#2 Exclusion - Tryptophan A Attempt #1 (HarryS)] :: III
GCCGUACGCAUGGAUACCAGACAACCAUUCUAAAUUUUGUGUCCGGUAGUGAUGUUACCUGUCCCUUGGCAGCCAUGCGUACGGC :: III
CGCAAGCAGCCAGUGAUGUUGGCUGCCUUGCGAGGACCGGUACGGCCGCCACUCGAAGGCAGCUACUGGUAAACCGUCUAACGGA [Atere] :: II
UGUGUGUAGGGAAGGAGCGCCGAGAGAAGAAGAAAAGAGUGAUGUUCAAGACAAUAAAGACGGCAGGUAGGUCGCCCUGUGUGUG [Default title] :: III
AGGUCCGAGCCUGCAAAGGCUCGGACCUGUUAGGAUAUGACGUUAUUCAGAAGGGAUGGGUGGAGUGAUGUUCCACCCGCAAGGG [#2 Same State - FMN A Attempt #7 (HarryS)] :: II
AAUAUAAAGCAGUGAUGUUGCUUAUGAGAAGGAGCGCACGAAAGUGCAGGUAGGUCGCUCAGCCAAGUGGACGAAAACGUCCACA [whbob_SS_Arginine_A_sa106] :: I
AGACUACUGAUAGGAUAUAACAUCCUAGUCGUAUACCGAAAGGUAUACGAUAUCCUUCUAGUGAUGUUAGAAGGGUCGGUAGUCA [Omei KL FMN B Exc B v10] :: II
CAAUGAGUAUAAGAUGAUAUCAUCACAGAAGGAGCGAGUGAUAACUCAGGUAGGUCGCUGAAUUUAUCGAGUGAUGUUCGAUAGA [whbob_SS_Arginine_A_sa118] :: III

Input GUAUCAGUGAUGUUGAUAGGCGAGCGGGAUACCAGCCAAGACUCAGGCCCUUGGCAGCCCACAUAUCCCACGUAGAUAGUAGCUC [Same State - Theophylline A (Freestyle 16)] ; output its category
II

Input AAGUCUCGUUAAUUCGUGGUUUCGAUCGAUACCAGUAGCGAGAGUUACCCUUGGCAGCGAAAUGAGUGAUGUUCAUGAAAGAAGA [KL-XTheoA10] ; output its category
I

Input GUCCACACUGCAGGAUAUGGAGGAAUAGCGAGGGAGUGUGGAAGCACACCUCUGGCAGUGAUGUUGCCAGAAGGGCGGUGCGGCG [Cemaorar] ; output its category
II

Input AAGGCAGUUCGAGGAUAUCACAUACACUCCUUGAAUCAAGGAGUGAUGUUCCUUGAAGUGUAUGCAUGAGAAGGCGAAUUGCCUU [FMN B SS t5] ; output its category
II

Input UCACGUGCCAGUGAUGUUGGCGUACGUGAUACCAGAACAAUAAAGUUCCCUUGGCAGCACAAAUAUGCCAAGUUAGAUGUAUGAU [Exclusion Theophylline A GF 3] ; output its category
II
